- System: RPMI-8226
- assay.procedure: NCI tumour cell line growth inhibition, 48 h
Calls of active or inactive are those of the source. No stated cut-off is given here; in the data, active = GI50 up to about 1.1 µM and inactive = higher. Peptide text beside a SMILES is read from it. * marks the point of attachment. Boc = CC(C)(C)OC(=O)*

[
  {
    "compound": "CN/C(=N\\c1ccc(OC)c2ccccc12)SC",
    "GI50": "> 10 µM (inactive)"
  },
  {
    "compound": "O=C(O)c1nc2ccccc2nc1Nc1ccc(Cl)c(Cl)c1",
    "GI50": "35.3 µM (inactive)"
  },
  {
    "compound": "NC(Cc1c[nH]c2ccccc12)P(=O)(O)O (centres undefined)",
    "GI50": "> 100 µM (inactive)"
  },
  {
    "compound": "COC(=O)C(Cc1c[nH]c2ccccc12)NC(=O)C(Cc1c[nH]c2ccccc12)NC(=O)C(Cc1c[nH]c2ccccc12)NC(=O)C(Cc1c[nH]c2ccccc12)NC(=O)C(Cc1c[nH]c2ccccc12)NC(=O)OC(C)(C)C (centres undefined) (Boc-WWWWW-OMe; configuration not given here)",
    "GI50": "26.2 µM (inactive)"
  },
  {
    "compound": "O=C(CSC1=NCCN1)Nc1ccccc1",
    "GI50": "41.2 µM (inactive)"
  },
  {
    "compound": "CCN(CC)CCCNc1ccc2ncn3c4ccc(O)cc4c(=O)c1c23",
    "GI50": "2.06 µM (inactive)"
  },
  {
    "compound": "O=C1N[C@@H](c2c[nH]c3ccc(Br)cc23)C(=O)N[C@H]1c1c[nH]c2ccc(Br)cc12",
    "GI50": "7.46 µM (inactive)"
  },
  {
    "compound": "CCOC(=O)c1csc(NC(=O)CN(C)C)n1",
    "GI50": "> 100 µM (inactive)"
  },
  {
    "compound": "C=C(C)C(=O)O[C@H]1CC2(CO)O[C@@H]2CC/C(COC(C)=O)=C/C2OC(=O)C(=C)[C@@H]21 (some centres undefined)",
    "GI50": "7.16 µM (inactive)"
  }
]
